Tested on: Klebsiella pneumoniae
assay.info: Antibacterial activity against Klebsiella pneumoniae ATCC 700603 assessed as inhibition of bacterial growth incubated for 18 hrs by two fold serial dilution assay
Assay type: functional
Residues, ends and D or L forms follow the SMILES beside them.
result.type: MIC (µM)
# output: bare number, implied unit µM

IN: If you can, please state the reported MIC value of CCCCCCCCCCCCCCCC(=O)N[C@@H](CCCCN)C(=O)N[C@@H](CCCCN)C(=O)N[C@@H](C)C(=O)N[C@@H](CC(C)C)C(=O)N[C@@H](CCCCN)C(=O)N[C@@H](CC(C)C)C(=O)N[C@@H](C)C(=O)N[C@@H](CCCCN)C(=O)N[C@@H](CCCCN)C(=O)N1CCC[C@H]1C(=O)N[C@@H](CC(C)C)C(=O)N[C@@H](CCCCN)C(=O)N[C@@H](CC(C)C)C(=O)N[C@@H](CC(C)C)C(=O)N[C@@H](CCCCN)C(N)=O (HELM PEPTIDE1{[CCCCCCCCCCCCCCCC(=O)[*:2]].K.K.A.L.K.L.A.K.K.P.L.K.L.L.K.[am]}$$$$V2.0) .
OUT: 10
